Consider the following compounds; for each one, report its inhibition.
Target: Beta-secretase 1 (Homo sapiens)
Sequence (P56817 whole entry): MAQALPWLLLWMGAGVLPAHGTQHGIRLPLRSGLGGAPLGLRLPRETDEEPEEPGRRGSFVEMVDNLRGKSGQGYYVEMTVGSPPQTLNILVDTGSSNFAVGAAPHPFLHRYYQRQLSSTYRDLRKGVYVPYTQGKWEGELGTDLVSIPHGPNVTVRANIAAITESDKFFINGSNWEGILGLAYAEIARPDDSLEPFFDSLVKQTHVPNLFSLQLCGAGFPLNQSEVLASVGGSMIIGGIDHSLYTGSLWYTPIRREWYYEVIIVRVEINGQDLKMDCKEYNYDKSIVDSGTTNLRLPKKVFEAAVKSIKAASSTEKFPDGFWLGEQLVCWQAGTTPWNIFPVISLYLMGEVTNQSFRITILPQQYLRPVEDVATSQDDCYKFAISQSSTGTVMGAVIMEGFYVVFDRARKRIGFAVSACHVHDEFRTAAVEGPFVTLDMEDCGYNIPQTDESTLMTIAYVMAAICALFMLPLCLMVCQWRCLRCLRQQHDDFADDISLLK
Assay: Inhibition of human recombinant BACE1 at 2 uM by FRET assay
Report the figure in % without appending any unit label.

**Q:** What inhibition value was documented for this compound, CC(C)C[C@H](NC(=O)[C@@H](NC(=O)[C@@H](N)CNC(=O)c1[nH]c(=O)[nH]c(=O)c1F)C(C)C)C(=O)N[C@@H](Cc1ccccc1)[C@@H](O)C(=O)NC1(c2ccccc2)CCN(Cc2ccccc2)CC1 ?
**A:** 93

**Q:** What do you get for CC(C)C[C@H](NC(=O)[C@@H](NC(=O)[C@@H](N)CNC(=O)c1cc(O)ccc1O)C(C)C)C(=O)N[C@@H](Cc1ccccc1)[C@@H](O)C(=O)NC(C)(C)c1ccccc1 ?
**A:** 88

**Q:** What do you get for CC(C)C[C@H](NC(=O)[C@@H](NC(=O)[C@@H](N)CNC(=O)c1[nH]c(=O)[nH]c(=O)c1F)C(C)C)C(=O)N[C@@H](Cc1ccccc1)[C@@H](O)C(=O)N[C@H](C)c1ccccc1 ?
**A:** 98

**Q:** What do you get for CC(C)[C@H](NC(=O)[C@@H](N)CNC(=O)c1cc(O)ccc1O)C(=O)N[C@@H](CC1CCCCC1)C(=O)N[C@@H](Cc1ccccc1)[C@@H](O)C(=O)NC1(c2ccccc2)CCCCC1 ?
**A:** 87

----------
Consider the following compounds; for each one, report its inhibition.
Target: Beta-secretase 1 (Homo sapiens)
Assay: Inhibition of human recombinant BACE1 at 0.2 uM by FRET assay
Please give the number followed by its unit.

**Q:** What inhibition value was documented for this compound, CC(C)[C@H](NC(=O)[C@@H](N)CNC(=O)c1cc(O)ccc1O)C(=O)N[C@@H](CC1CCCCC1)C(=O)N[C@@H](Cc1ccccc1)[C@@H](O)C(=O)N[C@H](C)c1ccccc1 ?
**A:** 51%

**Q:** What do you get for CC(C)C[C@H](NC(=O)[C@@H](NC(=O)[C@@H](N)CNC(=O)c1[nH]c(=O)[nH]c(=O)c1F)C(C)C)C(=O)N[C@@H](Cc1ccccc1)[C@@H](O)C(=O)NC1(c2ccccc2)CCCCC1 ?
**A:** 85%

**Q:** What do you get for CC(C)[C@H](NC(=O)[C@@H](N)CNC(=O)c1[nH]c(=O)[nH]c(=O)c1F)C(=O)N[C@@H](CC1CCCCC1)C(=O)N[C@@H](Cc1ccccc1)[C@@H](O)C(=O)N[C@@H](C)c1ccccc1 ?
**A:** 80%

**Q:** What do you get for CC(C)C[C@H](NC(=O)[C@@H](NC(=O)[C@@H](N)CNC(=O)c1cc(O)ccc1O)C(C)C)C(=O)N[C@@H](Cc1ccccc1)[C@@H](O)C(=O)N[C@H](C)c1ccccc1 ?
**A:** 44%

----------
Target: Beta-secretase 1 (Homo sapiens)
Assay: Inhibition of human recombinant BACE1 at 2 uM by FRET assay
Consider the following compounds; for each one, report its inhibition.
Report the figure in % without appending any unit label.

**Q:** What inhibition value was documented for this compound, CC(C)[C@H](NC(=O)[C@@H](N)CNC(=O)c1[nH]c(=O)[nH]c(=O)c1F)C(=O)N[C@@H](CC1CCCCC1)C(=O)N[C@@H](Cc1ccccc1)[C@@H](O)C(=O)N[C@H](C)c1ccccc1 ?
**A:** 98

**Q:** What do you get for CC(C)[C@H](NC(=O)[C@@H](N)CNC(=O)c1cc(O)ccc1O)C(=O)N[C@@H](CC1CCCCC1)C(=O)N[C@@H](Cc1ccccc1)[C@@H](O)C(=O)N[C@H](C)c1ccccc1 ?
**A:** 88

**Q:** What do you get for CC(C)[C@H](NC(=O)[C@@H](N)CNC(=O)c1cc(O)ccc1O)C(=O)N[C@@H](CC1CCCCC1)C(=O)N[C@@H](Cc1ccccc1)[C@@H](O)C(=O)N[C@@H](C)c1ccccc1 ?
**A:** 89

**Q:** What do you get for CC(C)C[C@H](NC(=O)[C@@H](NC(=O)[C@@H](N)CNC(=O)c1cc(O)ccc1O)C(C)C)C(=O)N[C@@H](Cc1ccccc1)[C@@H](O)C(=O)NC1(c2ccccc2)CCCC1 ?
**A:** 90

**Q:** What do you get for CC(C)C[C@H](NC(=O)[C@@H](NC(=O)[C@@H](N)CNC(=O)c1[nH]c(=O)[nH]c(=O)c1F)C(C)C)C(=O)N[C@@H](Cc1ccccc1)[C@@H](O)C(=O)NC1(c2ccccc2)CCCCC1 ?
**A:** 98

**Q:** What do you get for CC(C)[C@H](NC(=O)[C@@H](N)CNC(=O)c1[nH]c(=O)[nH]c(=O)c1F)C(=O)N[C@@H](CC1CCCCC1)C(=O)N[C@@H](Cc1ccccc1)[C@@H](O)C(=O)N[C@@H](C)c1ccccc1 ?
**A:** 98

**Q:** What do you get for CC(C)[C@H](NC(=O)[C@@H](N)CNC(=O)c1[nH]c(=O)[nH]c(=O)c1F)C(=O)N[C@@H](CC1CCCCC1)C(=O)N[C@@H](Cc1ccccc1)[C@@H](O)C(=O)NC1(c2ccccc2)CCCC1 ?
**A:** 98

**Q:** What do you get for CC(C)[C@H](NC(=O)[C@@H](N)CNC(=O)c1cc(O)ccc1O)C(=O)N[C@@H](CC1CCCCC1)C(=O)N[C@@H](Cc1ccccc1)[C@@H](O)C(=O)NC1(c2ccccc2)CCN(Cc2ccccc2)CC1 ?
**A:** 57

**Q:** What do you get for CC(C)C[C@H](NC(=O)[C@@H](NC(=O)[C@@H](N)CNC(=O)c1cc(O)ccc1O)C(C)C)C(=O)N[C@@H](Cc1ccccc1)[C@@H](O)C(=O)NC1(c2ccccc2)CCN(Cc2ccccc2)CC1 ?
**A:** 59

**Q:** What do you get for CC(C)C[C@H](NC(=O)[C@@H](NC(=O)[C@@H](N)CNC(=O)c1[nH]c(=O)[nH]c(=O)c1F)C(C)C)C(=O)N[C@@H](Cc1ccccc1)[C@@H](O)C(=O)NC1(c2ccccc2)CCCC1 ?
**A:** 99

**Q:** What do you get for CC(C)C[C@H](NC(=O)[C@@H](NC(=O)[C@@H](N)CNC(=O)c1cc(O)ccc1O)C(C)C)C(=O)N[C@@H](Cc1ccccc1)[C@@H](O)C(=O)N[C@@H](C)c1ccccc1 ?
**A:** 88
